Reference source for all entries: paper PMC2756588

Molecular target: GST
Assay: SPOT array
Details: median of control spots 978
value_type: SPOT intensity

Example entries begin here.
{"binder": "PAPPPPPRASRPTPN", "SPOT intensity": 1}
{"binder": "TPEIPPPLPPKIMVH", "SPOT intensity": 0}

A: APPLPPTAPPPPSLP
B: NRARYLPQNPDIIAG
Of the two listed items, which has the higher SPOT intensity? First: A Second: B Pick one; state its label. A
(A: 1, B: 0)
